Tested on: OVCAR-5
procedure_details: NCI tumour cell line growth inhibition, 48 h
Active and inactive are the calls of the source. Cut-off read from the data, not from the text of the source: active = GI50 up to about 1.1 µM and inactive = higher.
Listing of recorded GI50 by entry.

{"molecule": "CCCCn1c2ccccc2c2ccc3c(c21)C(=O)C=CC3=O", "GI50": "> 100 µM (inactive)"}
{"molecule": "CCCCN(CCCC)CCC(O)c1cc(-c2ccc(C(F)(F)F)cc2)nc(-c2ccc(C(F)(F)F)cc2)c1 (stereo not given)", "GI50": "> 100 µM (inactive)"}
{"molecule": "Cc1ccc(-n2cc(-c3ccc(Cl)cc3)c3c(NNC(=S)NCc4ccccc4)ncnc32)cc1", "GI50": "11.3 µM (inactive)"}
{"molecule": "CN(C)CC(C)(C)C(=O)/C=C/c1ccc(/C=C/C(=O)C(C)(C)CN(C)C)cc1", "GI50": "1.82 µM (inactive)"}
{"molecule": "CCOC(=O)Nc1nc(-c2ccccc2)c(C)s1", "GI50": "> 100 µM (inactive)"}
{"molecule": "Cc1ccccc1SC(/C=C/NNC1=NN=C(c2ccccc2)C(c2ccccc2)N1)c1ccccc1 (stereo not given)", "GI50": "> 100 µM (inactive)"}
{"molecule": "CCOC(=O)C12C(C(=O)OC)=C(C)N(NC(=O)Nc3ccccc3)C1(N)N(NC(=O)Nc1ccccc1)C(C)=C2C(=O)OC (stereo not given)", "GI50": "38.5 µM (inactive)"}
{"molecule": "CC(=O)Nc1ccc2oc(=O)c3ccccc3c2c1", "GI50": "> 100 µM (inactive)"}
{"molecule": "O=c1oc2cccnc2n1CCN1CCN(c2ccc(Oc3ccccc3)cc2)CC1", "GI50": "> 100 µM (inactive)"}
{"molecule": "O=C1c2ccccc2-c2c1c1ccccc1c(=O)n2Cc1ccco1", "GI50": "> 100 µM (inactive)"}
